- STUDY SYSTEM: T1, Human EphA2 (Ecto), C-terminal polyHis (Human, UniProt P29317 24-537)
- T1 construct: extracellular domain; R&D systems 3035-A2 or in-house
- T1 sequence (P29317 24-537): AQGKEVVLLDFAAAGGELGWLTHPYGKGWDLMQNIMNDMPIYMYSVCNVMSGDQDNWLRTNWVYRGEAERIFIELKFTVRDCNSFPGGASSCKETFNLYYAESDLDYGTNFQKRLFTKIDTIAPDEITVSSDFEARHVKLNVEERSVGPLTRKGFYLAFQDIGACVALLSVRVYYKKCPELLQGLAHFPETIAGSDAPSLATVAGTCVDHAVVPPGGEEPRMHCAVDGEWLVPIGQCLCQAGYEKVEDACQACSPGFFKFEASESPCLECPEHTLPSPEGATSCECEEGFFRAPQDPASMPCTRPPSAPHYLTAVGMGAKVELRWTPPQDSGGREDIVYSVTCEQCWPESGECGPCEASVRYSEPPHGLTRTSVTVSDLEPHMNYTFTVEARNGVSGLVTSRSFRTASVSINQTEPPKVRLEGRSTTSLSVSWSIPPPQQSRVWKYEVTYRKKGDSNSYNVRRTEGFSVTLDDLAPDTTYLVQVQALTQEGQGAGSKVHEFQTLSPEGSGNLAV
- PROCEDURE DETAILS: FP competition vs Reference Compound C (Study 2)
*1 amine or outer side, *2 acyl side, *3 side chain or, on linkers, in order; H or OH if unused. Bridges are numbered along the chain shown (N, C = ends). Where no end group is shown, it is not given here. TATA = O=C(CC[*:1])N1CN(C(=O)CC[*:2])CN(C(=O)CC[*:3])C1
READOUT TYPE: pKi
Friendly reminder that pKi comes from taking -log10 of the concentration in mol/L.

Solved entries:
>>> assay_value("Ac-CPLVNPLCLHPGWTCLHG (linker 1-8-15 via TATA; not fully specified (C-terminus); also: TrpCit-MMAE conjugated, site not given here, Bicycle drug conjugate (BDC)) [BCY6038]")
8.55
>>> assay_value("AXDCPLVNPLCLHPGWTC (not fully specified; as BCY6014 (N-terminal (β-Ala)-Sar10; HArg; TATA scaffold on the 3 Cys) + ValCit-MMAE, Bicycle drug conjugate (BDC)) [BCY6033]")
8.00

Q: Requested read-out: pKi. Entry: AXDCPLVNPLCLHPGWTC (not fully specified; as BCY6014 (N-terminal (β-Ala)-Sar10; HArg; TATA scaffold on the 3 Cys) + DM1-SS-, Bicycle drug conjugate (BDC)) [BCY6031]
Ans: 7.90

Q: Okay, and AXDCPLVNPLCLHPGWTC (not fully specified; as BCY6014 (N-terminal (β-Ala)-Sar10; HArg; TATA scaffold on the 3 Cys) + TrpCit-MMAE, Bicycle drug conjugate (BDC)) [BCY6034] ?
Ans: 8.23

Q: Okay, and AXDCPLVNPLCLHPGWTC (not fully specified; as BCY6014 (N-terminal (β-Ala)-Sar10; HArg; TATA scaffold on the 3 Cys) + DM1-SS-(Me)-SO3H-, Bicycle drug conjugate (BDC)) [BCY6077] ?
Ans: 8.19

Q: Okay, and AXDCPLVNPLCLHPGWTC (not fully specified; as BCY6014 (N-terminal (β-Ala)-Sar10; HArg; TATA scaffold on the 3 Cys) + D-TrpCit-MMAE, Bicycle drug conjugate (BDC)) [BCY6062] ?
Ans: 7.89
